Here the recorded pEC50 is given for each entry.
target system: Adenylate cyclase type 1 (Homo sapiens)
Sequence (Q08828 whole entry): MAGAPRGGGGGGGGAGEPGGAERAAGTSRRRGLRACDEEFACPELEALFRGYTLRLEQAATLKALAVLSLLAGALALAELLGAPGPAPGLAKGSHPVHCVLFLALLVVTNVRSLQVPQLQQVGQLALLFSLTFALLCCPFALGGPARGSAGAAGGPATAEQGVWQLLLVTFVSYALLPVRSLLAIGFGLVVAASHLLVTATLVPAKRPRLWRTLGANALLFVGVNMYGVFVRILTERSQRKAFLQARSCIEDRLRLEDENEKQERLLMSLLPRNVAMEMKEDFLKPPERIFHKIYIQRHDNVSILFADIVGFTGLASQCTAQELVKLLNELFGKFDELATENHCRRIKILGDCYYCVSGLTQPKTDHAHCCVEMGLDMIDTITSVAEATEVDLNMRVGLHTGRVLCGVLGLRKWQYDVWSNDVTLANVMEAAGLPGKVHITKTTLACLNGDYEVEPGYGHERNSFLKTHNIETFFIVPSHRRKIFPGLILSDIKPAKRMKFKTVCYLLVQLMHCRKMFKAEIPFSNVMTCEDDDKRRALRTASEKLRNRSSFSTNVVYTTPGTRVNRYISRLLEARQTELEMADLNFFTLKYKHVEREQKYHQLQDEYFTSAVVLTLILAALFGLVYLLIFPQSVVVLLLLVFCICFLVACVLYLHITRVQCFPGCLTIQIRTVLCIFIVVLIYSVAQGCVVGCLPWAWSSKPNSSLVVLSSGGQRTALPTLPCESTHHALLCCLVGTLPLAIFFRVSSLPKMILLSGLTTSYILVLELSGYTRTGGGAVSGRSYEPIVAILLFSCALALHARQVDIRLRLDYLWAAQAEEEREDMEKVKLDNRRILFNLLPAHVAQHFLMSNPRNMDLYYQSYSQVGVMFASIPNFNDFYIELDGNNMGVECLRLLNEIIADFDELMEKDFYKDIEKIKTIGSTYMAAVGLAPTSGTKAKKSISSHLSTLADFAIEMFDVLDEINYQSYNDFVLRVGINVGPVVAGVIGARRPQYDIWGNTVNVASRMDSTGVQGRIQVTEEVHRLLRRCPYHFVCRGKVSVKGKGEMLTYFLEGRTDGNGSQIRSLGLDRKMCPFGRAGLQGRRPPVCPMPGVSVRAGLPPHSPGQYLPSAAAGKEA
experiment notes: Ability to activate the conversion of [32P] ATP to [32P]-cyclic AMP mediated by adenylate cyclase 1
Format: functional
pEC50: −log10 of the molar value.

[[record]]
compound = "C=C[C@@]1(C)CC(=O)[C@]2(O)[C@@]3(C)[C@@H](O)CCC(C)(C)[C@@H]3[C@H](OC(=O)NCCOC)[C@H](O)[C@@]2(C)O1"
target_system = "Adenylate cyclase type 1 (Homo sapiens)"
result = "< 5.70"

[[record]]
compound = "C=C[C@@]1(C)CC(=O)[C@]2(O)[C@@]3(C)[C@@H](O)CCC(C)(C)[C@@H]3[C@H](O)[C@H](OC(=O)NCC3CCCCC3)[C@@]2(C)O1"
target_system = "Adenylate cyclase type 1 (Homo sapiens)"
result = "< 5.70"


[ask] Return value of pEC50 for input C=C[C@@]1(C)CC(=O)[C@]2(O)[C@@]3(C)[C@@H](O)CCC(C)(C)[C@@H]3[C@H](OC(=O)NCCc3ccc(N)cc3)[C@H](O)[C@@]2(C)O1 , no commentary.
[reply] < 5.70
